tested on: NCI-H23; test: NCI tumour cell line growth inhibition, 48 h
Active and inactive are the calls of the source. Rule as the data show it: active = GI50 up to about 1.1 µM and inactive = higher.
This section presents compounds with their documented GI50 values.

Observe how each entry below is paired with its result.
compound=CCN1c2nc3ccccc3nc2N(CC)c2nc3ccccc3nc21 measured_metric=GI50 value_observed="49.1 µM (inactive)"
compound=CCOC(=O)C(C(=O)OCC)c1ccc([N+](=O)[O-])o1 measured_metric=GI50 value_observed="17.6 µM (inactive)"
compound=Cc1ccc(NC(=O)c2cc3ccccc3c(/N=N/c3cc(S(=O)(=O)O)ccc3O)c2O)c(C)c1 measured_metric=GI50 value_observed="16.6 µM (inactive)"
compound="C=C(C)C(=O)OC1CC2=CC(CC3(C)OC3C3OC(=O)C(=C)C13)OC2=O (configuration not stated)" measured_metric=GI50 value_observed="15.4 µM (inactive)"
compound=CC(C)(C)OC(=O)NCCC(=O)NC1(c2cc3ccccc3s2)CCCCC1 measured_metric=GI50 value_observed="15.5 µM (inactive)"

Tell me its GI50 on NCI-H23: `N=C(N)SCCN1CCCCC1`
26.1 µM (inactive)

Enter recorded GI50 with NCI-H23 for `C/C(O[Si](C(C)C)(C(C)C)C(C)C)=C(\C)C(=O)N(C)c1ccccc1Cl` here.
> 100 µM (inactive)

* * *

tested on: OVCAR-3; assay: NCI tumour cell line growth inhibition, 48 h
Active and inactive are the calls of the source. Cut-off read from the data, not from the text of the source: active = GI50 up to about 1.1 µM and inactive = higher.
measured.metric: GI50

molecule=O=S(=O)(/N=c1\[nH]c(-c2cc(O)c(O)c(O)c2)cs1)c1ccc(Cl)cc1Cl measured_metric=GI50 value_observed="17.4 µM (inactive)"
molecule="N#CC1CCCC2SC(F)(F)C(F)(F)C12 (stereo unspecified)" measured_metric=GI50 value_observed="> 100 µM (inactive)"
molecule="CNCC(SC)c1ccc(O)c(O)c1 (stereo unspecified)" measured_metric=GI50 value_observed="14.1 µM (inactive)"
molecule="Fc1ccccc1C1SCC2=Nc3ccccc3CN21 (stereo unspecified)" measured_metric=GI50 value_observed="97.1 µM (inactive)"
molecule="C/C=C/[C@H]1O[C@@](OC)([C@@H](C)[C@H](O)[C@H](C)[C@H]2OC(=O)/C(OC)=C/C(C)=C/[C@@H](C)[C@@H](O)[C@@H](C)[C@@H](O)[C@H](C)C/C(C)=C/C=C/[C@@H]2OC)CC(OC2CC(O)C(OC(N)=O)C(C)O2)[C@@H]1C (stereo partly specified)" measured_metric=GI50 value_observed="< 0.01 µM (active)"

Switching to the query record.
Return GI50 for the following molecule: `O=C1Nc2ccccc2C(=O)/C1=C/NC(=S)NC1CCCCC1`
> 100 µM (inactive)

* * *

system: COLO 205; experiment: NCI tumour cell line growth inhibition, 48 h
The source made the active and inactive calls. Cut-off read from the data, not from the text of the source: active = GI50 up to about 1.1 µM and inactive = higher.
Let's look at some molecules and their measured GI50.

A selection of reference data follows.
molecule=Cc1ccc(S(=O)(=O)NN=C2C(C)(C)CC2(C)C)cc1 value_observed="> 100 µM (inactive)"
molecule=O=C1CC[C@@]2(O)[C@H]3Cc4ccc(-c5cccc(O)c5)c5c4[C@@]2(CCN3CC2CC2)[C@H]1O5 value_observed="21 µM (inactive)"
molecule="CCCCCCCCCCCCC(O)[C@H]1CC[C@H](C(O)CCCCCC(=O)CCCCC2CC(C(C)=O)C(=O)O2)O1 (stereo not given in full)" value_observed="6.3 µM (inactive)"

Quick one: give measured GI50 for `O=[N+]([O-])c1cc(C(F)(F)F)cc2c1SC1=Nc3ccccc3CN12`
> 100 µM (inactive)

Retrieve GI50 measured for `COc1c(OC/C=C(\C)CCC=C(C)C)ccc2ccc(=O)oc12` and print it.
> 100 µM (inactive)

For the molecule `NS(=O)(=O)c1ccc(NNc2c3ccccc3nc3c(C(=O)Nc4ccc(S(N)(=O)=O)cc4)cccc23)cc1` , report GI50.
39.9 µM (inactive)

For the molecule O=C(COc1ccc(OCC(=O)NNC2=NC(c3cc(F)c(Cl)cc3Cl)CS2)c(Cl)c1)NNC1=NC(c2cc(F)c(Cl)cc2Cl)CS1 (stereo not given) , report GI50.
34.2 µM (inactive)

Dear colleague, please send me the reported GI50 for CC(C)(C)[Si](C)(C)O[C@@H](C(=O)OC1C=CCCC1)[C@@H](NC(=O)c1ccccc1)c1ccccc1 (stereo not given in full) when you can.
25.3 µM (inactive)

// Input: COc1ccc(NC(C)=O)cc1N1C(=O)/C(=C\c2cc(OC)c(OC)c(OC)c2)S(=O)(=O)C1c1ccccc1 (stereo not given) . Output its GI50 only.
39 µM (inactive)

Tell me measured GI50 for `Cc1ccc(/C=C/C(=O)C(C)(C)CN2CCCCC2)cc1` please.
3.66 µM (inactive)
